All figures here come from paper PMC5862567.

target: sPHGDH (aa 3-314), cofactor-binding pocket (Homo sapiens, UniProt O43175); construct: the truncated version (sPHGDH, aa 3-314); His6 (N, cleaved yes); TEV protease recognition site (N, cleaved yes); made in house; host or cells: E. coli Rosetta (DE3); test: ITC competition experiment (NADH titrated into sPHGDH premixed with fragment); settings: competition ITC; 5 mM fragment; 0.5 mM NADH into 0.05 mM sPHGDH; 25 °C; 5 % DMSO; read-out: Kd
Sequence (O43175 3-314): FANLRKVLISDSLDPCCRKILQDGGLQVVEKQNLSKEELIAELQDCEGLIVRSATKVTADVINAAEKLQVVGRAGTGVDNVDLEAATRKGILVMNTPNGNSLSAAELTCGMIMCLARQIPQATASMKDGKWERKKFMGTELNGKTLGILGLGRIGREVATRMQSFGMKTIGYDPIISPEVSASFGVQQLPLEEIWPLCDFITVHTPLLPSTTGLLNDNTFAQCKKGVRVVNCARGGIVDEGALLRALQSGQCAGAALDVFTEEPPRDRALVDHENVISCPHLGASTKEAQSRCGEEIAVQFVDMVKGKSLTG
Listed molecules paired with reported Kd
measured-endpoint: Kd (mM)

[[record]]
molecule = "Cc1cncc(Oc2cccc(CO)c2)n1"
assay_target = "sPHGDH (aa 3-314), cofactor-binding pocket (Homo sapiens, UniProt O43175)"
measured_endpoint = "Kd"
endpoint_value = 16.6

[[record]]
molecule = "NC(=O)c1ccc(F)c(Cl)c1 [Fragment 5, 3-Chloro-4-fluorobenzamide]"
assay_target = "sPHGDH (aa 3-314), cofactor-binding pocket (Homo sapiens, UniProt O43175)"
measured_endpoint = "Kd"
endpoint_value = 1.6

[[record]]
molecule = "Oc1ncnc2cccc(F)c12 [Fragment 4, 5-Fluoro-4-hydroxy quinazoline]"
assay_target = "sPHGDH (aa 3-314), cofactor-binding pocket (Homo sapiens, UniProt O43175)"
measured_endpoint = "Kd"
endpoint_value = 12.8

[[record]]
molecule = "c1ccc(Cn2ccnc2)cc1"
assay_target = "sPHGDH (aa 3-314), cofactor-binding pocket (Homo sapiens, UniProt O43175)"
measured_endpoint = "Kd"
endpoint_value = 11.8

[[record]]
molecule = "Oc1noc2ccc(F)cc12 [Fragment 19, 5-fluoro-3-hydroxybenzisoxazole]"
assay_target = "sPHGDH (aa 3-314), cofactor-binding pocket (Homo sapiens, UniProt O43175)"
measured_endpoint = "Kd"
endpoint_value = 15.4


* * *

Listed below: pKd values for each entry.
target: sPHGDH (aa 3-314), cofactor-binding pocket (Homo sapiens, UniProt O43175); construct: the truncated version (sPHGDH, aa 3-314); His6 (N, cleaved yes); TEV protease recognition site (N, cleaved yes); made in house; host or cells: E. coli Rosetta (DE3); assay: ITC competition experiment (NADH titrated into sPHGDH premixed with fragment); settings: competition ITC; 5 mM fragment; 0.5 mM NADH into 0.05 mM sPHGDH; 25 °C; 5 % DMSO; read-out: Kd
pKd: −log10 of the molar value.
measured-endpoint: pKd

[[record]]
molecule = "Cc1cccc2c(O)noc12"
assay_target = "sPHGDH (aa 3-314), cofactor-binding pocket (Homo sapiens, UniProt O43175)"
measured_endpoint = "pKd"
endpoint_value = 1.80

[[record]]
molecule = "Cn1ccc2cc(N)ccc21"
assay_target = "sPHGDH (aa 3-314), cofactor-binding pocket (Homo sapiens, UniProt O43175)"
measured_endpoint = "pKd"
endpoint_value = 1.95

[[record]]
molecule = "Oc1noc2cc(Cl)ccc12 [Fragment 17, 6-chloro-3-hydroxybenzisoxazole]"
assay_target = "sPHGDH (aa 3-314), cofactor-binding pocket (Homo sapiens, UniProt O43175)"
measured_endpoint = "pKd"
endpoint_value = 2.62

[[record]]
molecule = "Cc1cccc2cc[nH]c12"
assay_target = "sPHGDH (aa 3-314), cofactor-binding pocket (Homo sapiens, UniProt O43175)"
measured_endpoint = "pKd"
endpoint_value = 2.82

[[record]]
molecule = "Cc1cncc(Oc2cccc(N)c2)n1"
assay_target = "sPHGDH (aa 3-314), cofactor-binding pocket (Homo sapiens, UniProt O43175)"
measured_endpoint = "pKd"
endpoint_value = 1.94

[[record]]
molecule = "O=C1COc2cc(O)ccc21"
assay_target = "sPHGDH (aa 3-314), cofactor-binding pocket (Homo sapiens, UniProt O43175)"
measured_endpoint = "pKd"
endpoint_value = 2.23

[[record]]
molecule = "Cn1nc(-c2ccccc2)cc1N"
assay_target = "sPHGDH (aa 3-314), cofactor-binding pocket (Homo sapiens, UniProt O43175)"
measured_endpoint = "pKd"
endpoint_value = 2.24

[[record]]
molecule = "COc1ccc(NC(C)=O)cc1Cl [Fragment 15, N-(3-chloro-4-methoxyphenyl) acetamide]"
assay_target = "sPHGDH (aa 3-314), cofactor-binding pocket (Homo sapiens, UniProt O43175)"
measured_endpoint = "pKd"
endpoint_value = 2.55

[[record]]
molecule = "Oc1noc2ccccc12 [Fragment 16, 3-Hydroxy benzisoxazole]"
assay_target = "sPHGDH (aa 3-314), cofactor-binding pocket (Homo sapiens, UniProt O43175)"
measured_endpoint = "pKd"
endpoint_value = 2.19


* * *

target: sPHGDH (aa 3-314), cofactor-binding pocket (Homo sapiens, UniProt O43175); construct: the truncated version (sPHGDH, aa 3-314); His6 (N, cleaved yes); TEV protease recognition site (N, cleaved yes); made in house; host or cells: E. coli Rosetta (DE3); test: ITC competition experiment (NADH titrated into sPHGDH premixed with fragment); conditions: competition ITC; 5 mM fragment; 25 °C
measured-endpoint: ΔH (kcal/mol)

[[record]]
molecule = "Cc1cncc(Oc2cccc(CO)c2)n1"
reading_unit = "kcal/mol"
endpoint_value = 3.78

[[record]]
molecule = "Oc1ncnc2cccc(F)c12 [Fragment 4, 5-Fluoro-4-hydroxy quinazoline]"
reading_unit = "kcal/mol"
endpoint_value = 1.98

[[record]]
molecule = "COc1ccc(NC(C)=O)cc1Cl [Fragment 15, N-(3-chloro-4-methoxyphenyl) acetamide]"
reading_unit = "kcal/mol"
endpoint_value = -419.02

[[record]]
molecule = "Cc1cccc2cc[nH]c12"
reading_unit = "kcal/mol"
endpoint_value = -380.95


* * *

biological target: recombinant full-length PHGDH (Homo sapiens, UniProt O43175); construct: encoding for the full-length enzyme (aa 1-533); His6 (N, cleaved yes); TEV protease recognition site (N, cleaved yes); made in house; host or cells: E. coli Rosetta (DE3); experiment: Differential scanning fluorimetry (DSF) thermal shift assay, fragment screen; assay type: binding; settings: fragment 1 mM; primary DSF screen; 15 μM PHGDH; read-out: ΔTm (screening hit)
Sequence (O43175 whole entry, the tested form may be a part): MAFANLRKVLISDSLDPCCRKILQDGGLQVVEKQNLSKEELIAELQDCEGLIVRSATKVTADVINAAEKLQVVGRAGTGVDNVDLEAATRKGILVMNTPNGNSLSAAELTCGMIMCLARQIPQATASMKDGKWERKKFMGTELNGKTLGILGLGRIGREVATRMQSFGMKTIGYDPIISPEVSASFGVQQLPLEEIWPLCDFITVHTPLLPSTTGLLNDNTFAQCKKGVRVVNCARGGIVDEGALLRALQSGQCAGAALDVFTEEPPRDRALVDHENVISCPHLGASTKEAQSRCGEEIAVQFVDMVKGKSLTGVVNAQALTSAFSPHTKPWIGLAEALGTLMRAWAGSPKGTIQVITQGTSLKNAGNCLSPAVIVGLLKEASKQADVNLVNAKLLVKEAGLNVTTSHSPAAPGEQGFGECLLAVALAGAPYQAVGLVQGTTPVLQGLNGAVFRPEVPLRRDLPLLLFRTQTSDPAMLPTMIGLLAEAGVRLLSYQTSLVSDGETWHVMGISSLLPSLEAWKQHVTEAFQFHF
measured-endpoint: ΔTm at 1000 µM

[[record]]
compound = "Oc1ccnc(O)c1 [Fragment 13, 2,4.Dihydroxy pyridine]"
measured_endpoint = "ΔTm at 1000 µM"
endpoint_value = "0.8 °C"

[[record]]
compound = "Oc1ncnc2cccc(F)c12 [Fragment 4, 5-Fluoro-4-hydroxy quinazoline]"
measured_endpoint = "ΔTm at 1000 µM"
endpoint_value = "2.4 °C"

[[record]]
compound = "O=C1COc2cc(O)ccc21"
measured_endpoint = "ΔTm at 1000 µM"
endpoint_value = "1.7 °C"

[[record]]
compound = "NC(=O)c1ccc(F)c(Cl)c1 [Fragment 5, 3-Chloro-4-fluorobenzamide]"
measured_endpoint = "ΔTm at 1000 µM"
endpoint_value = "2.3 °C"

[[record]]
compound = "Cn1ccc2cc(N)ccc21"
measured_endpoint = "ΔTm at 1000 µM"
endpoint_value = "2 °C"

[[record]]
compound = "Cc1cncc(Oc2cccc(N)c2)n1"
measured_endpoint = "ΔTm at 1000 µM"
endpoint_value = "1.7 °C"

[[record]]
compound = "Oc1noc2ccccc12 [Fragment 16, 3-Hydroxy benzisoxazole]"
measured_endpoint = "ΔTm at 1000 µM"
endpoint_value = "2.5 °C"


* * *

biological target: sPHGDH (aa 3-314), cofactor-binding pocket (Homo sapiens); construct: the truncated version (sPHGDH, aa 3-314); His6 (N, cleaved yes); TEV protease recognition site (N, cleaved yes); made in house; host or cells: E. coli Rosetta (DE3); test: ITC competition experiment (NADH titrated into sPHGDH premixed with fragment); details: competition ITC; 5 mM fragment; 25 °C
ΔS reference
measured-endpoint: ΔS

[[record]]
molecule = "NC(=O)c1ccc(F)c(Cl)c1 [Fragment 5, 3-Chloro-4-fluorobenzamide]"
endpoint_value = "-0.07 kJ (mol x K)"

[[record]]
molecule = "O=C1COc2cc(O)ccc21 [Fragment 8]"
endpoint_value = "-1.02 kJ (mol x K)"

[[record]]
molecule = "Oc1ncnc2cccc(F)c12 [Fragment 4, 5-Fluoro-4-hydroxy quinazoline]"
endpoint_value = "-0.01 kJ (mol x K)"

[[record]]
molecule = "Oc1noc2ccc(F)cc12 [Fragment 19, 5-fluoro-3-hydroxybenzisoxazole]"
endpoint_value = "-0.67 kJ (mol x K)"

[[record]]
molecule = "COc1ccc(NC(C)=O)cc1Cl [Fragment 15, N-(3-chloro-4-methoxyphenyl) acetamide]"
endpoint_value = "-5.93 kJ (mol x K)"

[[record]]
molecule = "c1ccc(Cn2ccnc2)cc1 [Fragment 12, 1-Benzylimidazole]"
endpoint_value = "-0.25 kJ (mol x K)"

[[record]]
molecule = "Cn1nc(-c2ccccc2)cc1N [Fragment 3, 1-Methyl-3-phenyl-1H-pyrazol-5-amine]"
endpoint_value = "-1.61 kJ (mol x K)"

[[record]]
molecule = "Cc1cccc2c(O)noc12 [Fragment 18]"
endpoint_value = "-0.67 kJ (mol x K)"


* * *

molecular target: recombinant full-length PHGDH (Homo sapiens, UniProt O43175); construct: encoding for the full-length enzyme (aa 1-533); His6 (N, cleaved yes); TEV protease recognition site (N, cleaved yes); made in house; host or cells: E. coli Rosetta (DE3); assay: Differential scanning fluorimetry (DSF) thermal shift assay, fragment screen; type: binding; set-up: key: Z-score of Tm shift, in standard deviations from the screen mean; conditions: average Z score of primary fragment screens by DSF
In this section, each of the compounds is paired with its reported Z score.
measured-endpoint: Z score

[[record]]
compound = "CCc1nc(C)c[nH]1"
assay_target = "recombinant full-length PHGDH (Homo sapiens, UniProt O43175)"
measured_endpoint = "Z score"
endpoint_value = 1.0

[[record]]
compound = "O=C1COc2cc(O)ccc21"
assay_target = "recombinant full-length PHGDH (Homo sapiens, UniProt O43175)"
measured_endpoint = "Z score"
endpoint_value = 1.5

[[record]]
compound = "Oc1noc2ccccc12 [Fragment 16, 3-Hydroxy benzisoxazole]"
assay_target = "recombinant full-length PHGDH (Homo sapiens, UniProt O43175)"
measured_endpoint = "Z score"
endpoint_value = 1.4

[[record]]
compound = "NC(=O)c1ccc(F)c(Cl)c1 [Fragment 5, 3-Chloro-4-fluorobenzamide]"
assay_target = "recombinant full-length PHGDH (Homo sapiens, UniProt O43175)"
measured_endpoint = "Z score"
endpoint_value = 1.0

[[record]]
compound = "Cc1ccc(F)cc1C(=O)O"
assay_target = "recombinant full-length PHGDH (Homo sapiens, UniProt O43175)"
measured_endpoint = "Z score"
endpoint_value = 1.1

[[record]]
compound = "Cc1cncc(Oc2cccc(CO)c2)n1"
assay_target = "recombinant full-length PHGDH (Homo sapiens, UniProt O43175)"
measured_endpoint = "Z score"
endpoint_value = 1.2

[[record]]
compound = "Oc1ccnc(O)c1 [Fragment 13, 2,4.Dihydroxy pyridine]"
assay_target = "recombinant full-length PHGDH (Homo sapiens, UniProt O43175)"
measured_endpoint = "Z score"
endpoint_value = 1.4

[[record]]
compound = "c1ccc(Cn2ccnc2)cc1"
assay_target = "recombinant full-length PHGDH (Homo sapiens, UniProt O43175)"
measured_endpoint = "Z score"
endpoint_value = 1.1

[[record]]
compound = "Cn1nc(-c2ccccc2)cc1N"
assay_target = "recombinant full-length PHGDH (Homo sapiens, UniProt O43175)"
measured_endpoint = "Z score"
endpoint_value = 1.0

